FYI, the data here is from patent US4684620A.

- target_system: mu opioid receptor (Rattus norvegicus, UniProt P33535)
- Sequence (P33535 whole entry): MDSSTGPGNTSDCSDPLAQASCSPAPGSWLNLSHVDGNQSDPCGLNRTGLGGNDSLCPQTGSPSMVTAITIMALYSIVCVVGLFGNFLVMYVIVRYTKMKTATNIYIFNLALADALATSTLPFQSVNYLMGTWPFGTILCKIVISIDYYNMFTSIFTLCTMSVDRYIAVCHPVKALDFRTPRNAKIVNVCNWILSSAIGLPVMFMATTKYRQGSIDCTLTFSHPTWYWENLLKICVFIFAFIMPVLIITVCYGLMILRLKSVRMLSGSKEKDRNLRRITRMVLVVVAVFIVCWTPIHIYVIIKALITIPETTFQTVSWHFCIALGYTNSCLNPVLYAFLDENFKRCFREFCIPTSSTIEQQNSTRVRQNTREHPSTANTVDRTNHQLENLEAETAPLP
pIC50: −log10 of the molar value. Positions of bridges follow the written chain, without caps; N, C: chain ends. Non-standard residues stand in square brackets, D forms with d. Residues, ends and D or L forms follow the SMILES beside them. Asu = N[C@@H](CCCCCC(=O)O)C(=O)O; dPhg = N[C@@H](C(=O)O)c1ccccc1; Pen = CC(C)(S)[C@H](N)C(=O)O
Given measured pIC50, output met if it is greater than or equal to 6 and not met if not.

Worked examples, 6 molecules total:
Query: Textbook exercise: given the entry CC(=O)N[C@@H](Cc1ccccc1)C(=O)N[C@H](Cc1c[nH]c2ccccc12)C(=O)N[C@@H](CCCCN)C(=O)N[C@H](C(=O)O)[C@@H](C)O [AcPhe --D-TrpLysThr, reference compound] (Ac-F[dW]KT-OH) , state whether its pIC50 is greater than or equal to 6.
Reply: not met

Query: Textbook exercise: given the entry C[C@@H](O)[C@H](NC(=O)[C@H]1NC(=O)[C@H]([C@@H](C)O)NC(=O)[C@H](CCCCN)NC(=O)[C@@H](Cc2c[nH]c3ccccc23)NC(=O)[C@H](Cc2ccccc2)NC(=O)[C@@H](NC(=O)[C@H](N)Cc2ccccc2)C(C)(C)SSC1(C)C)C(=O)O [drawing 30] , state whether its pIC50 is greater than or equal to 6.
Reply: not met

Query: Textbook exercise: given the entry C[C@@H](O)[C@H](NC(=O)[C@@H]1CSSC[C@H](NC(=O)[C@H](N)Cc2ccccc2)C(=O)N[C@@H](Cc2ccccc2)C(=O)N[C@H](Cc2c[nH]c3ccccc23)C(=O)N[C@@H](CCCCN)C(=O)N[C@@H]([C@@H](C)O)C(=O)N1)C(=O)O [drawing 31] , state whether its pIC50 is greater than or equal to 6.
Reply: not met

Query: Textbook exercise: given the entry C[C@@H](O)[C@@H]1NC(=O)[C@H](Cc2ccc(O)cc2)NC(=O)[C@H]([C@@H](C)O)NC(=O)[C@H](CCCCN)NC(=O)[C@H](Cc2c[nH]c3ccccc23)NC(=O)[C@H](Cc2ccccc2)NC(=O)[C@H](Cc2ccccc2)NC(=O)[C@H](CC(N)=O)NC(=O)[C@H](CCCCN)NC(=O)CCCCC[C@@H](C(=O)O)NC(=O)[C@H](CO)NC1=O [CGP 23,996, reference compound] (KNFFWKTYTS[Asu]-OH; lactam N-11) , state whether its pIC50 is greater than or equal to 6.
Reply: not met

Query: Textbook exercise: given the entry C[C@@H](O)[C@H](NC(=O)[C@@H]1CSSC(C)(C)[C@H](NC(=O)[C@H](N)Cc2ccccc2)C(=O)N[C@@H](Cc2ccccc2)C(=O)N[C@H](Cc2c[nH]c3ccccc23)C(=O)N[C@@H](CCCCN)C(=O)N[C@@H]([C@@H](C)O)C(=O)N1)C(=O)O [drawing 32] , state whether its pIC50 is greater than or equal to 6.
Reply: not met

Query: Textbook exercise: given the entry C[C@@H](O)[C@H](NC(=O)[C@H]1NC(=O)[C@H]([C@@H](C)O)NC(=O)[C@H](CCCCN)NC(=O)[C@@H](Cc2c[nH]c3ccccc23)NC(=O)[C@H](Cc2ccc(O)cc2)NC(=O)[C@@H](NC(=O)[C@H](N)Cc2ccccc2)CSSC1(C)C)C(=O)O [drawing 26] , state whether its pIC50 is greater than or equal to 6.
Reply: met

Others:
Query: Textbook exercise: given the entry C[C@@H](O)[C@H](NC(=O)[C@@H]1CSSC(C)(C)[C@H](NC(=O)[C@H](N)Cc2ccccc2)C(=O)N[C@@H](Cc2ccc(O)cc2)C(=O)N[C@H](Cc2c[nH]c3ccccc23)C(=O)N[C@@H](CCCCN)C(=O)N[C@@H]([C@@H](C)O)C(=O)N1)C(=O)O , state whether its pIC50 is greater than or equal to 6.
Reply: met

Query: Textbook exercise: given the entry C[C@@H](O)[C@H](NC(=O)[C@H]1NC(=O)[C@H]([C@@H](C)O)NC(=O)[C@H](CCCCN)NC(=O)[C@@H](Cc2c[nH]c3ccccc23)NC(=O)[C@H](Cc2ccccc2)NC(=O)[C@@H](NC(=O)[C@H](N)Cc2ccccc2)CSSC1(C)C)C(N)=O [drawing 25] , state whether its pIC50 is greater than or equal to 6.
Reply: met

Query: Textbook exercise: given the entry C[C@@H](O)[C@H](NC(=O)[C@@H]1CSSC(C)(C)[C@H](NC(=O)[C@H](N)c2ccccc2)C(=O)N[C@@H](Cc2ccccc2)C(=O)N[C@H](Cc2c[nH]c3ccccc23)C(=O)N[C@@H](CCCCN)C(=O)N[C@@H]([C@@H](C)O)C(=O)N1)C(=O)O [drawing 28] (H-[dPhg][Pen]F[dW]KTCT-OH; disulfide 2-7) , state whether its pIC50 is greater than or equal to 6.
Reply: not met

Query: Textbook exercise: given the entry C[C@@H](O)[C@H](NC(=O)[C@H]1NC(=O)[C@H]([C@@H](C)O)NC(=O)[C@H](CCCCN)NC(=O)[C@@H](Cc2c[nH]c3ccccc23)NC(=O)[C@H](Cc2ccc(O)cc2)NC(=O)[C@@H](NC(=O)[C@H](N)Cc2ccccc2)CSSC1(C)C)C(N)=O [drawing 24] , state whether its pIC50 is greater than or equal to 6.
Reply: met
